Values from patent US20040077599A1

# System: Group II/III metabotropic glutamate receptors (mGluRs)
# measurement protocol: Cyclic AMP assay (forskolin-induced cyclic AMP accumulation in cortical slices)
# Assay type: cell-based, Sprague Dawley rat
# run parameters: agonist mode; rat cortical slices; read-out: EC50 (M), Group II/III Agonist
Assignment: determine reported EC50 for the given molecules.
One number for each entry, in M.

NC(C(=O)O)C1CCCC12CC2C(=O)O (stereo not drawn) [Compound 27, Spiro[4,2]heptane-1-carboxy-4-glycine] :: 8.7e-11
NC1(C(=O)O)CCCC12C(C(=O)O)C2c1ccccc1 (stereo not drawn) [Compound 16] :: 1e-09

Now for the molecule whose EC50 we want.
Prompt: Please report the recorded EC50 for NC(C(=O)O)C1CCCC12CC2C(=O)O (stereo not drawn) [Compound 26, Spiro[4,2]heptane-1-carboxy-4-glycine] .
Completion: 1.6e-06
